Hey, just so you know, these numbers are from ChEMBL document CHEMBL1147010.

- target: Rhodesain (Trypanosoma brucei rhodesiense, UniProt Q95PM0)
- Sequence (Q95PM0 whole entry): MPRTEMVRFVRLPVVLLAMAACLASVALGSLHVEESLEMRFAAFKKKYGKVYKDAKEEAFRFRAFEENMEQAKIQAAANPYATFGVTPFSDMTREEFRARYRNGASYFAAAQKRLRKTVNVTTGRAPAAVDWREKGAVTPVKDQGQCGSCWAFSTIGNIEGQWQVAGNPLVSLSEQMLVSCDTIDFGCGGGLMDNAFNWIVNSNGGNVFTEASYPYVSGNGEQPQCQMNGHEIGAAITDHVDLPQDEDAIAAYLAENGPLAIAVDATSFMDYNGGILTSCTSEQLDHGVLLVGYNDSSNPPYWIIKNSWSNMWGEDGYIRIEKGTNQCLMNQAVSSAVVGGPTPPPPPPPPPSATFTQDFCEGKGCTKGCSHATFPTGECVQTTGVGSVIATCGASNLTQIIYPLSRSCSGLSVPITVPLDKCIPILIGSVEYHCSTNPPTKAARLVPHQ
- experiment-description: Inhibition of Trypanosoma brucei rhodesiense rhodesain
property-name: pKi
Note: pKi values are expressed as the negative base-10 logarithm of concentration in M.

Task: Give pKi for CC(C)C[C@H](NC(=O)OC(C)(C)C)C(=O)N1CCC[C@@H]1C(=O)N1[C@H](C(=O)OCc2ccccc2)[C@H]1C(=O)OCc1ccccc1 tested on Rhodesain (Trypanosoma brucei rhodesiense, UniProt Q95PM0).
Result: 5.92

Task: Give pKi for CC(C)(C)OC(=O)NCC(=O)N1CCC[C@@H](C(=O)N2[C@H](C(=O)OCc3ccccc3)[C@H]2C(=O)OCc2ccccc2)C1 tested on Rhodesain (Trypanosoma brucei rhodesiense, UniProt Q95PM0).
Result: 5.96

Task: Give pKi for C[C@@H](NC(=O)[C@H](Cc1ccccc1)NC(=O)OC(C)(C)C)C(=O)N1[C@H](C(=O)O)[C@H]1C(=O)O tested on Rhodesain (Trypanosoma brucei rhodesiense, UniProt Q95PM0).
Result: 6.10

Task: Give pKi for CC(C)C[C@H](NC(=O)OC(C)(C)C)C(=O)N1CC[C@@H]1C(=O)N1[C@H](C(=O)OCc2ccccc2)[C@H]1C(=O)OCc1ccccc1 tested on Rhodesain (Trypanosoma brucei rhodesiense, UniProt Q95PM0).
Result: 6.10

Task: Give pKi for CC(C)(C)OC(=O)NCC(=O)N1CCC[C@H](C(=O)N2[C@H](C(=O)OCc3ccccc3)[C@H]2C(=O)OCc2ccccc2)C1 tested on Rhodesain (Trypanosoma brucei rhodesiense, UniProt Q95PM0).
Result: 5.96

Task: Give pKi for C[C@@H](NC(=O)[C@H](Cc1ccccc1)NC(=O)OC(C)(C)C)C(=O)N1[C@H](C(=O)OCc2ccccc2)[C@H]1C(=O)OCc1ccccc1 tested on Rhodesain (Trypanosoma brucei rhodesiense, UniProt Q95PM0).
Result: 5.92

Task: Give pKi for CC(C)C[C@H](NC(=O)OC(C)(C)C)C(=O)N1CC[C@H]1C(=O)N1[C@H](C(=O)OCc2ccccc2)[C@H]1C(=O)OCc1ccccc1 tested on Rhodesain (Trypanosoma brucei rhodesiense, UniProt Q95PM0).
Result: 6.10

Task: Give pKi for CC(C)C[C@@H](NC(=O)OC(C)(C)C)C(=O)N1CCC[C@H]1C(=O)N1[C@H](C(=O)OCc2ccccc2)[C@H]1C(=O)OCc1ccccc1 tested on Rhodesain (Trypanosoma brucei rhodesiense, UniProt Q95PM0).
Result: 5.96

Task: Give pKi for CCOC(=O)[C@@H]1[C@@H](C(=O)OCC)N1C(=O)[C@@H]1CCCN(C(=O)[C@H](CC(C)C)NC(=O)OC(C)(C)C)C1 tested on Rhodesain (Trypanosoma brucei rhodesiense, UniProt Q95PM0).
Result: 6.00

Task: Give pKi for CC(C)C[C@@H](NC(=O)OC(C)(C)C)C(=O)N1CCC[C@@H](C(=O)N2[C@H](C(=O)OCc3ccccc3)[C@H]2C(=O)OCc2ccccc2)C1 tested on Rhodesain (Trypanosoma brucei rhodesiense, UniProt Q95PM0).
Result: 6.15

Task: Give pKi for CCOC(=O)[C@@H]1[C@@H](C(=O)OCC)N1C(=O)C1CCN(C(=O)[C@H](CC(C)C)NC(=O)OC(C)(C)C)CC1 tested on Rhodesain (Trypanosoma brucei rhodesiense, UniProt Q95PM0).
Result: 5.85

Task: Give pKi for CCOC(=O)[C@@H]1[C@@H](C(=O)OCC)N1C(=O)[C@H]1CCCN(C(=O)[C@H](CC(C)C)NC(=O)OC(C)(C)C)C1 tested on Rhodesain (Trypanosoma brucei rhodesiense, UniProt Q95PM0).
Result: 6.00

Task: Give pKi for CC(C)(C)OC(=O)NCC(=O)N1CCC[C@H]1C(=O)N1[C@H](C(=O)O)[C@H]1C(=O)O tested on Rhodesain (Trypanosoma brucei rhodesiense, UniProt Q95PM0).
Result: 6.05

###

- Test system: J774
- experiment-description: Cytotoxicity against J774.1 cell line after 48 hrs
- Format: functional, cell-based
- conditions: Mus musculus, J774, 48 h
Record form. Attribute: IC50. Fill in for each entry.

Task: Answer with the recorded IC50 for the compound listed here: C[C@@H](NC(=O)[C@H](Cc1ccccc1)NC(=O)OC(C)(C)C)C(=O)N1[C@H](C(=O)OCc2ccccc2)[C@H]1C(=O)OCc1ccccc1
Result: > 100 µM

Task: Answer with the recorded IC50 for the compound listed here: Cc1ccc(C(=O)Nc2ccc(S(=O)(=O)[O-])c3cc(S(=O)(=O)[O-])cc(S(=O)(=O)[O-])c23)cc1NC(=O)c1cccc(NC(=O)Nc2cccc(C(=O)Nc3cc(C(=O)Nc4ccc(S(=O)(=O)[O-])c5cc(S(=O)(=O)[O-])cc(S(=O)(=O)[O-])c45)ccc3C)c2)c1.[Na+].[Na+].[Na+].[Na+].[Na+].[Na+] [SURAMIN HEXASODIUM]
Result: > 1000 µM

Task: Answer with the recorded IC50 for the compound listed here: CC(C)C[C@H](NC(=O)OC(C)(C)C)C(=O)N1CCC[C@H]1C(=O)N1[C@H](C(=O)OCc2ccccc2)[C@H]1C(=O)OCc1ccccc1
Result: > 125 µM

Task: Answer with the recorded IC50 for the compound listed here: CC(C)C[C@H](NC(=O)OC(C)(C)C)C(=O)N1CC[C@@H]1C(=O)N1[C@H](C(=O)OCc2ccccc2)[C@H]1C(=O)OCc1ccccc1
Result: 37.2 µM

Task: Answer with the recorded IC50 for the compound listed here: CC(C)C[C@@H](NC(=O)OC(C)(C)C)C(=O)N1CCC[C@H](C(=O)N2[C@H](C(=O)OCc3ccccc3)[C@H]2C(=O)OCc2ccccc2)C1
Result: > 100 µM
